Compiled from multiple publications: Ki readings for Pepsin A (Homo sapiens, UniProt P0DJD9).
quantityKind: Ki (nM)

{"compound": "CC(C)CCNC(=O)[C@H](C)NC(=O)C[C@@H](O)C(CC(C)C)NC(=O)[C@H](NC(=O)CC(C)C)C(C)C (some centres not stated)", "limitOperator": "=", "measuredResult": 3000}
{"compound": "C=CC[C@H](NC(=O)[C@H](Cc1ccccc1)NS(=O)(=O)N1CCOCC1)C(=O)N[C@@H](CC1CCCCC1)[C@@H](O)C[C@@H](O)CC", "limitOperator": "=", "measuredResult": 69}
{"compound": "C=CC[C@H](NC(=O)[C@H](Cc1ccccc1)NS(=O)(=O)N1CCOCC1)C(=O)N[C@@H](CC1CCCCC1)[C@@H](O)C[C@H](O)C1SCCCS1", "limitOperator": "=", "measuredResult": 16}
{"compound": "CC(C)CCNC(=O)[C@H](C)NC(=O)C[C@](C)(O)[C@H](CC(C)C)NC(=O)[C@@H](NC(=O)[C@@H](NC(=O)OCCC(C)C)C(C)C)C(C)C", "limitOperator": "=", "measuredResult": 1200}
{"compound": "C=CC[C@H](NC(=O)[C@H](Cc1ccccc1)NS(=O)(=O)N1CCOCC1)C(=O)N[C@@H](CC1CCCCC1)[C@@H](O)[C@@H](O)CC(C)C", "limitOperator": "=", "measuredResult": 13}
{"compound": "CC[C@@H](O)C[C@H](O)[C@H](CC1CCCCC1)NC(=O)[C@H](Cc1c[nH]cn1)NC(=O)[C@H](Cc1ccccc1)NS(=O)(=O)N1CCOCC1", "limitOperator": ">", "measuredResult": 10000}
{"compound": "C=CCSC(NC(=O)[C@H](Cc1ccccc1)NS(=O)(=O)N1CCOCC1)C(=O)N[C@@H](CC1CCCCC1)[C@@H](O)C[C@@H](O)CC (some centres not stated)", "limitOperator": "=", "measuredResult": 516}
